Origin of values: paper PMC10303271

Biological target: A1 (Homo sapiens, UniProt P30542)
Construct: purchased NIMH Psychoactive Drug Screening Program (PDSP)
Sequence (P30542 1-326): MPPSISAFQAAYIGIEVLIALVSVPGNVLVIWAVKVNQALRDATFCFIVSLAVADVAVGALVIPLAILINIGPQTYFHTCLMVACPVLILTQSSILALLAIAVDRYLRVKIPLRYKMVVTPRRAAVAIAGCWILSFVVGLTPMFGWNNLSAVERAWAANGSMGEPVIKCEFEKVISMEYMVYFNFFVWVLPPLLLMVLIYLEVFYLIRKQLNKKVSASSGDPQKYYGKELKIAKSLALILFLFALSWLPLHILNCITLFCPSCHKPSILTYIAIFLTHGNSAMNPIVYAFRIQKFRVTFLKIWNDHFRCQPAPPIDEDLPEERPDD
Test: PDSP primary binding A1
Conditions: 1.5 h; primary binding, 10,000 nM; last figure of the line = mean of the 4 before it; read-out: A1, PDSP raw data, mean
PARAMETER: inhibition at 10 µM (%)
# value in %; strip the unit string

// worked examples, inhibition at 10 µM included
{"SMILES": "CCc1noc(-c2ncn3c2[C@@H](C)N=C(c2ccccc2F)c2cc(C4CC4)ccc2-3)n1", "UNIT TEXT": "%", "inhibition at 10 µM": 30.9}
{"SMILES": "C[C@H]1N=C(c2ccccc2F)c2cc(Cl)ccc2-n2cnc(-c3nc(C4CC4)no3)c21", "UNIT TEXT": "%", "inhibition at 10 µM": 55.5}
{"SMILES": "CCc1noc(-c2ncn3c2CN=C(c2ccccc2F)c2cc(C4CC4)ccc2-3)n1", "UNIT TEXT": "%", "inhibition at 10 µM": 48.2}
{"SMILES": "C#Cc1ccc2c(c1)C(c1ccccc1F)=N[C@H](C)c1c(C(=S)N(C)C)ncn1-2", "UNIT TEXT": "%", "inhibition at 10 µM": 25.9}
{"SMILES": "CCc1noc(-c2ncn3c2[C@@H](C)N=C(c2ccccc2F)c2cc(Cl)ccc2-3)n1", "UNIT TEXT": "%", "inhibition at 10 µM": 67.9}

[ask] Need inhibition at 10 µM of C#Cc1ccc2c(c1)C(c1ccccn1)=N[C@@H](C)c1c(C(=O)N(C)C)ncn1-2 , thanks.
[reply] 32.2

[ask] Which inhibition at 10 µM is reported for this compound? C[C@H]1N=C(c2ccccc2F)c2cc(-c3ccccc3)ccc2-n2cnc(C(=O)N(C)C)c21
[reply] 25.9

[ask] Returns the measured inhibition at 10 µM for the input compound. Input: C#Cc1ccc2c(c1)C(c1ccccc1Cl)=N[C@H](C)c1c(C(=O)NC)ncn1-2
[reply] -13.3

====

Target: HCA2 (Homo sapiens, UniProt Q8TDS4)
Construct: purchased NIMH Psychoactive Drug Screening Program (PDSP)
Sequence (Q8TDS4 whole entry): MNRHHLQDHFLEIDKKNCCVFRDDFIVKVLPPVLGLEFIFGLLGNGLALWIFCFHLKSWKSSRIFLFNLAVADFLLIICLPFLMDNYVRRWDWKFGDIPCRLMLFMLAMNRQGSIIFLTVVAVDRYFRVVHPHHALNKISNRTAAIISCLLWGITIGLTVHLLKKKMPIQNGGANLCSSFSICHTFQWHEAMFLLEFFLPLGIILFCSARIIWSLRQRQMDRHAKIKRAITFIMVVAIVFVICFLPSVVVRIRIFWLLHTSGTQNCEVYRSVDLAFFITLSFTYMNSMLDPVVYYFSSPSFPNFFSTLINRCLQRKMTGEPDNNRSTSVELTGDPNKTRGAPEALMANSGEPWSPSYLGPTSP
Experiment: PDSP primary binding HCA2
Settings: primary binding, 10,000 nM; last figure of the line = mean of the 4 before it; read-out: HCA2, PDSP raw data, mean
Experimental: To determine if any off-target receptor-binding effects are present, all the novel ligands were sent to the National Institute of Mental Health (NIMH), Psychoactive Drug Screening Program (PDSP). […] The hERG-binding was also determined. […] The binding of a ligand to a receptor, ion channel, or transporter was determined in the […] of 10 µM of the appropriate reference compound. […] Radioactivity was then counted on a Microbeta counter. […]
PARAMETER: inhibition at 10 µM (%)
# output: bare number, implied unit %

Would you please look over these solved cases?
{"SMILES": "C#Cc1ccc2c(c1)C(c1ccccn1)=N[C@@H](C)c1c(C(=O)N(C)C)ncn1-2", "SYSTEM TESTED": "HCA2 (Homo sapiens, UniProt Q8TDS4)", "inhibition at 10 µM [%]": 20.8}
{"SMILES": "CCc1noc(-c2ncn3c2[C@@H](C)N=C(c2ccccc2F)c2cc(-c4ccccc4)ccc2-3)n1", "SYSTEM TESTED": "HCA2 (Homo sapiens, UniProt Q8TDS4)", "inhibition at 10 µM [%]": -18.7}
{"SMILES": "CC(C)c1noc(-c2ncn3c2[C@@H](C)N=C(c2ccccc2F)c2cc(Cl)ccc2-3)n1", "SYSTEM TESTED": "HCA2 (Homo sapiens, UniProt Q8TDS4)", "inhibition at 10 µM [%]": 35.2}

[ask] Look at this compound and give its reported inhibition at 10 µM. C[C@H]1N=C(c2ccccc2F)c2cc(-c3ccccc3)ccc2-n2cnc(C(=O)N(C)C)c21
[reply] -9.82

====

Molecular target: M4 D (Homo sapiens, UniProt P08173, A203G/Y113C)
Construct: purchased NIMH Psychoactive Drug Screening Program (PDSP)
Sequence (P08173 whole entry Y113C/A203G): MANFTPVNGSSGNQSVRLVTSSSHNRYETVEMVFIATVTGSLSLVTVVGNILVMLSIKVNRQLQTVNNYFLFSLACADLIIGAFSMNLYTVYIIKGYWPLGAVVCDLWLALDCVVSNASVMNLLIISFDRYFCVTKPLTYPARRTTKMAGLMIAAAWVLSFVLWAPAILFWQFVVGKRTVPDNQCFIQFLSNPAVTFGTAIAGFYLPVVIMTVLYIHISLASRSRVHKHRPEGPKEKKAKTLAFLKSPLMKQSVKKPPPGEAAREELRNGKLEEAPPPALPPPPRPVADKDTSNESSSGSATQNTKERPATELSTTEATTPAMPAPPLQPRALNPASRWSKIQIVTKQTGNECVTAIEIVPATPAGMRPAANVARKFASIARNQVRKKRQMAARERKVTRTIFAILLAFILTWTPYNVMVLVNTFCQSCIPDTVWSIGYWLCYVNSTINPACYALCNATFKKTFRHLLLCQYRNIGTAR
Test: PDSP primary binding M4 D
Conditions: primary binding, 10,000 nM; last figure of the line = mean of the 4 before it; read-out: M4 D, PDSP raw data, mean
Measured inhibition at 10 µM by item
Supply the numeric figure in %, leaving out any unit text.

{"COMPOUND": "CCc1noc(-c2ncn3c2[C@@H](C)N=C(c2ccccc2F)c2cc(C4CC4)ccc2-3)n1 [Compound 46]", "PARAMETER": "inhibition at 10 µM", "REPORTED RESULT": 33.1}
{"COMPOUND": "C#Cc1ccc2c(c1)C(c1ccccc1Cl)=N[C@H](C)c1c(C(=O)N(C)CC)ncn1-2 [Compound 29]", "PARAMETER": "inhibition at 10 µM", "REPORTED RESULT": 46.2}
{"COMPOUND": "CCc1noc(-c2ncn3c2[C@@H](C)N=C(c2ccccc2F)c2cc(Cl)ccc2-3)n1 [Compound 36]", "PARAMETER": "inhibition at 10 µM", "REPORTED RESULT": 26.6}

As a next step, examine the compound that follows.
[ask] Sample CCc1noc(-c2ncn3c2[C@@H](C)N=C(c2ccccc2F)c2cc(-c4ccccc4)ccc2-3)n1 [Compound 35] — what was its inhibition at 10 µM?
[reply] 15.7

====

Biological target: DOR (Homo sapiens)
Construct: purchased NIMH Psychoactive Drug Screening Program (PDSP)
Sequence (P41143 whole entry): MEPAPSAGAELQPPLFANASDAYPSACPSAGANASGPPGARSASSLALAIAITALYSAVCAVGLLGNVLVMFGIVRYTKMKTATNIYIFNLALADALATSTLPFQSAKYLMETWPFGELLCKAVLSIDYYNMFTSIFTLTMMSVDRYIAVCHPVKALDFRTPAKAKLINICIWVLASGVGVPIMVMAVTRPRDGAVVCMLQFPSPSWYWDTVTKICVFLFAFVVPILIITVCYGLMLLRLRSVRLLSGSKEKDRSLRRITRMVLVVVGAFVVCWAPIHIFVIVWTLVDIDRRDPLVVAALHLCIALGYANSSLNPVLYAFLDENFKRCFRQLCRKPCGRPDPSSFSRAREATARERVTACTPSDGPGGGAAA
Assay: PDSP radioligand binding at DOR
Conditions: at 10,000 nM; N = 5; [3H]-DADLE 2.69 nM; read-out: Primary Binding %DOR
PARAMETER: inhibition at 10 µM (%)
Please reply with the bare figure in % and do not write the unit itself.

{"SMILES": "C[C@H]1N=C(c2ccccc2F)c2cc(Cl)ccc2-n2cnc(C(=O)N(C)C)c21", "SYSTEM TESTED": "DOR (Homo sapiens)", "REPORTED RESULT": 14.4}
{"SMILES": "C#Cc1ccc2c(c1)C(c1ccccc1F)=N[C@H](C)c1c(C(=S)N(C)C)ncn1-2", "SYSTEM TESTED": "DOR (Homo sapiens)", "REPORTED RESULT": 13.2}

[ask] Quick one: inhibition at 10 µM for CCc1noc(-c2ncn3c2[C@@H](C)N=C(c2ccccc2F)c2cc(-c4ccccc4)ccc2-3)n1 ?
[reply] 52.7

[ask] Name the recorded inhibition at 10 µM for CCc1noc(-c2ncn3c2CN=C(c2ccccc2F)c2cc(C4CC4)ccc2-3)n1 .
[reply] 81.3

[ask] Please report the recorded inhibition at 10 µM for CCc1noc(-c2ncn3c2[C@@H](C)N=C(c2ccccc2F)c2cc(Cl)ccc2-3)n1 .
[reply] 40.7

[ask] Look up inhibition at 10 µM: C#Cc1ccc2c(c1)C(c1ccccc1Cl)=N[C@H](C)c1c(C(=O)N(C)CC)ncn1-2
[reply] 39.5

[ask] Request the reported inhibition at 10 µM associated with C#Cc1ccc2c(c1)C(c1ccccc1Cl)=N[C@H](C)c1c(C(=O)NC)ncn1-2
[reply] 28.3

[ask] I'd like to know its inhibition at 10 µM. The compound in question is C#Cc1ccc2c(c1)C(c1ccccn1)=N[C@@H](C)c1c(C(=O)NC)ncn1-2
[reply] 14.9

[ask] Entry C[C@H]1N=C(c2ccccc2F)c2cc(Cl)ccc2-n2cnc(-c3nc(C4CC4)no3)c21 has what inhibition at 10 µM?
[reply] 42.8

[ask] Form field: reported inhibition at 10 µM of C[C@H]1N=C(c2ccccc2F)c2cc(-c3ccccc3)ccc2-n2cnc(C(=O)N(C)C)c21
[reply] 43

[ask] Bench note: what inhibition at 10 µM did C#Cc1ccc2c(c1)C(c1ccccn1)=N[C@@H](C)c1c(C(=O)N(C)C)ncn1-2 show?
[reply] 6.18

[ask] # get_value(readout='inhibition at 10 µM', item= CCc1noc(-c2ncn3c2[C@@H](C)N=C(c2ccccc2F)c2cc(C4CC4)ccc2-3)n1 )
[reply] 67.3

[ask] Fill blank: measured inhibition at 10 µM of the compound CC(C)c1noc(-c2ncn3c2[C@@H](C)N=C(c2ccccc2F)c2cc(Cl)ccc2-3)n1 is ____.
[reply] 31.9

====

Below is a list of entries, each paired with its recorded inhibition at 10 µM value.
Target: Alpha1D (Homo sapiens, UniProt P25100)
Construct: purchased NIMH Psychoactive Drug Screening Program (PDSP)
Sequence (P25100 1-572): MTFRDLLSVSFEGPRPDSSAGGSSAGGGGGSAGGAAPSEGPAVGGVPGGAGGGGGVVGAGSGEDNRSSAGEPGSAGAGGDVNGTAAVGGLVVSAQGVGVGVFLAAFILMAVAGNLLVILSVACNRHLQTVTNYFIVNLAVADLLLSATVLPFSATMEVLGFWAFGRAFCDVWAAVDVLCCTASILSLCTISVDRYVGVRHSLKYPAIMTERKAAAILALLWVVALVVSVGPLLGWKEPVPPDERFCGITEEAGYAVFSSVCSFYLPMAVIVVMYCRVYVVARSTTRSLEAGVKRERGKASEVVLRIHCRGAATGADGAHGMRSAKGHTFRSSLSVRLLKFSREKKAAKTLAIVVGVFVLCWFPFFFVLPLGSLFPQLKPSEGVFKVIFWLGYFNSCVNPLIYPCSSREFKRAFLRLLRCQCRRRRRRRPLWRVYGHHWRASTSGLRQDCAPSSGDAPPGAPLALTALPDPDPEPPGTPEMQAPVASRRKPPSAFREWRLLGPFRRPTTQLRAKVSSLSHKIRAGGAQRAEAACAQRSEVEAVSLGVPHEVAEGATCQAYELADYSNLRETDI
Experiment: PDSP primary binding Alpha1D
Details: 1.5 h; primary binding, 10,000 nM; last figure of the line = mean of the 4 before it; read-out: Alpha1D, PDSP raw data, mean
Description: To determine if any off-target receptor-binding effects are present, all the novel ligands were sent to the National Institute of Mental Health (NIMH), Psychoactive Drug Screening Program (PDSP). […] The hERG-binding was also determined. […] The binding of a ligand to a receptor, ion channel, or transporter was determined in the […] of 10 µM of the appropriate reference compound. […] Radioactivity was then counted on a Microbeta counter. […]
Record the value in %, omitting the unit from your answer.

Sample answers from the record:
{"SMILES": "CC(C)c1noc(-c2ncn3c2[C@@H](C)N=C(c2ccccc2F)c2cc(Cl)ccc2-3)n1", "UNIT TEXT": "%", "REPORTED RESULT": 4.09}
{"SMILES": "CCc1noc(-c2ncn3c2CN=C(c2ccccc2F)c2cc(C4CC4)ccc2-3)n1", "UNIT TEXT": "%", "REPORTED RESULT": 1.28}
{"SMILES": "C[C@H]1N=C(c2ccccc2F)c2cc(-c3ccccc3)ccc2-n2cnc(C(=O)N(C)C)c21", "UNIT TEXT": "%", "REPORTED RESULT": 3.57}

// moving on: another record for inhibition at 10 µM
[ask] Any idea what its inhibition at 10 µM is? The compound is CCc1noc(-c2ncn3c2[C@@H](C)N=C(c2ccccc2F)c2cc(-c4ccccc4)ccc2-3)n1
[reply] -0.4
